All figures here come from ChEMBL document CHEMBL4266057.

- TEST_DETAILS: Metabolic stability in rat liver microsomes at 1 uM after 30 mins
- Assay type: ADME, microsome
- MEASUREMENT_SETUP: read-out: Stability
ATTRIBUTE_MEASURED: remaining at 0.5 h, 1 µM

input: Please supply the value of reported remaining at 0.5 h, 1 µM for the item `CCOc1cc(CN2CCC3(CC2)CC(=O)N(c2ccc(C(=O)O)cc2)C3)cc(OCC)c1-c1ccc(F)cc1`
output: > 80%

---

// remaining at 0.5 h, 1 µM lookup, one value per entry
- TEST_DETAILS: in vitro
- MEASUREMENT_SETUP: human, liver microsomes
Value expressed in %; do not type the unit.

Answered examples (3):
[
  {
    "SMILES_STRING": "O=C(O)c1ccc(N2CC3(CCN(Cc4cc(C(F)(F)F)ccc4C4CC4)CC3)OC2=O)cc1",
    "remaining at 0.5 h, 1 µM [%]": 99
  },
  {
    "SMILES_STRING": "Cc1cc(-c2ccc(F)c(F)c2F)c(CN2CCC3(CC2)CC(=O)N(c2ccc(C(=O)O)cc2)C3)cc1C(F)(F)F",
    "remaining at 0.5 h, 1 µM [%]": 100
  },
  {
    "SMILES_STRING": "Cc1cccc2c(CN3CCC4(CC3)CC(=O)N(c3ccc(C(=O)O)cc3)C4)cn(C(C)C)c12",
    "remaining at 0.5 h, 1 µM [%]": 100
  }
]

Here's the next entry for you.
input: Please report remaining at 0.5 h, 1 µM for the following compound: `CCOc1cc(CN2CCC3(CC2)CC(=O)N(c2ccc(C(=O)O)cc2)C3)cc(OCC)c1-c1ccc(F)cc1`
output: 92

---

- TEST_DETAILS: in vitro
- MEASUREMENT_SETUP: rhesus monkey, liver microsomes
Property: remaining at 0.5 h, 1 µM; scope: individual compounds
Field format: number, assumed %, no unit text.

The following compounds have reported results that may help.
[
  {
    "SMILES_STRING": "O=C(O)c1ccc(N2CC3(CCN(Cc4cc(C(F)(F)F)ccc4C4CC4)CC3)OC2=O)cc1",
    "remaining at 0.5 h, 1 µM (%)": 94
  },
  {
    "SMILES_STRING": "Cc1cccc2c(CN3CCC4(CC3)CC(=O)N(c3ccc(C(=O)O)cc3)C4)cn(C(C)C)c12",
    "remaining at 0.5 h, 1 µM (%)": 95
  },
  {
    "SMILES_STRING": "Cc1cc(-c2ccc(F)c(F)c2F)c(CN2CCC3(CC2)CC(=O)N(c2ccc(C(=O)O)cc2)C3)cc1C(F)(F)F",
    "remaining at 0.5 h, 1 µM (%)": 94
  }
]

Now consider the entry below.
input: Quick one: give measured remaining at 0.5 h, 1 µM for `CCOc1cc(CN2CCC3(CC2)CC(=O)N(c2ccc(C(=O)O)cc2)C3)cc(OCC)c1-c1ccc(F)cc1`
output: 28

---

- TEST_DETAILS: in vivo
- MEASUREMENT_SETUP: Sprague-Dawley, rat
ATTRIBUTE_MEASURED: half-life (h)
// return numeric value only (unit: h, not printed)

input: Respond only with half-life recorded for `O=C(O)c1ccc(N2CC3(CCN(Cc4cc(C(F)(F)F)ccc4C4CC4)CC3)OC2=O)cc1`
output: 1.6
